System: D 407 cells
Experiment: Cytotoxicity of amphiphile/DNA complexes, percentage of survived cells
Format: cell-based, human
Design: concentration or dose not given beside the values
Settings: amphiphile/DNA +/− charge ratio 2
Property: cytotoxicity as a percentage of survived cells; scope: individual compounds

Worked cases, cytotoxicity as a percentage of survived cells given:
COMPOUND: CCCCCCCCCCCCCCOC(=O)C1=C(C)NC(C)=C(C(=O)OCCCCCCCCCCCCCC)C1c1ccc[n+](C)c1.I.[I-] [VI]
VALUE OBSERVED: 79,12%
--
COMPOUND: CCCCCCCCCCCCCCCCOC(=O)C1=C(C[n+]2ccccc2)NC(C[n+]2ccccc2)=C(C(=O)OCCCCCCCCCCCCCCCC)C1c1ccccc1.[Br-].[Br-] [XXV]
VALUE OBSERVED: 101,48%
--
COMPOUND: CCCCCCCCCCCCCCOC(=O)C1=C(C[n+]2ccccc2)NC(C[n+]2ccccc2)=C(C(=O)OCCCCCCCCCCCCCC)C1c1ccccc1.[Br-].[Br-] [XXIV]
VALUE OBSERVED: 98,83%
--
COMPOUND: CCCCCCCCCCCCCCCCOC(=O)C1=C(C)NC(C)=C(C(=O)OCCCCCCCCCCCCCCCC)C1c1ccc[n+](C)c1.I.[I-] [VII]
VALUE OBSERVED: 62,61%
--
COMPOUND: CCCCCCCCCCCCCCCC(=O)OCCOC(=O)C1=C(C)NC(C)=C(C(=O)OCCOC(=O)CCCCCCCCCCCCCCC)C1c1ccc[n+](C)c1.I.[I-] [I]
VALUE OBSERVED: 51,14%

[ask] Read off the recorded cytotoxicity as a percentage of survived cells for CCCCCCCCCCCCOC(=O)C1=C(C[n+]2ccccc2)NC(C[n+]2ccccc2)=C(C(=O)OCCCCCCCCCCCC)C1c1ccccc1.[Br-].[Br-] [XXIII]
[reply] 79,68%

[ask] Read off the recorded cytotoxicity as a percentage of survived cells for CCCCCCCC/C=C\CCCCCCCC(=O)OCC(C[N+](C)(C)C)OC(=O)CCCCCCC/C=C\CCCCCCCC.[Cl-] (centres unmarked) [DOTAP, reference compound]
[reply] 80,32%

[ask] Read off the recorded cytotoxicity as a percentage of survived cells for CCCCCCCCCCCCOC(=O)C1=C(C)NC(C)=C(C(=O)OCCCCCCCCCCCC)C1c1ccc[n+](C)c1.I.[I-] [V]
[reply] 55,61%

###

MEASURED ATTRIBUTE: melting point

Worked cases, melting point given:
SMILES STRING: CCCCCCCCCCCCCCCC(=O)OCCOC(=O)C1=C(C)NC(C)=C(C(=O)OCCOC(=O)CCCCCCCCCCCCCCC)C1c1ccc[n+](C)c1.I.[I-]
VALUE OBSERVED: 105 to 107 °C
//
SMILES STRING: Br.CCCCCCCCCCCCCCCC[n+]1cccc(C2C(C(=O)OCc3ccc([N+](=O)[O-])cc3)=C(C)NC(C)=C2C(=O)OCc2ccc([N+](=O)[O-])cc2)c1.[Br-]
VALUE OBSERVED: 89 to 93 °C

Shift focus to the following entry.
[ask] Read off the recorded melting point for `Br.CCOC(=O)C1=C(C)NC(C)=C(C(=O)OCC)C1c1cc[n+](CC(=O)c2ccc3ccccc3c2)cc1.[Br-]`
[reply] 211 to 216 °C

###

Test system: CVI-P cells
Assay: Cytotoxicity of amphiphile/DNA complexes, percentage of survived cells
Settings: amphiphile/DNA +/− charge ratio 8
MEASURED ATTRIBUTE: cytotoxicity as a percentage of survived cells

Worked cases, cytotoxicity as a percentage of survived cells given:
COMPOUND: CCCCCCCCCCOC(=O)C1=C(C[N+](C)(C)CCCCCCCC)NC(C[N+](C)(C)CCCCCCCC)=C(C(=O)OCCCCCCCCCC)C1c1ccccc1.[Br-].[Br-]
VALUE OBSERVED: 13,46%
--
COMPOUND: CCCCCCCCCCCCCCCCOC(=O)C1=C(C)NC(C)=C(C(=O)OCCCCCCCCCCCCCCCC)C1c1ccc[n+](CC(N)=O)c1.I.[I-]
VALUE OBSERVED: 92,09%

Shift focus to the following entry.
[ask] Read off the recorded cytotoxicity as a percentage of survived cells for Br.CCCCCCCCCCCCCCCC[n+]1cccc(C2C(C(=O)OC3CC(C)CCC3C(C)C)=C(C)NC(C)=C2C(=O)OC2CC(C)CCC2C(C)C)c1.[Br-] (stereo not drawn)
[reply] 3,05%
